targetUnderTest: OsSMF1 (Oryza sativa, UniProt Q6ZLB0 1-436)
Sequence: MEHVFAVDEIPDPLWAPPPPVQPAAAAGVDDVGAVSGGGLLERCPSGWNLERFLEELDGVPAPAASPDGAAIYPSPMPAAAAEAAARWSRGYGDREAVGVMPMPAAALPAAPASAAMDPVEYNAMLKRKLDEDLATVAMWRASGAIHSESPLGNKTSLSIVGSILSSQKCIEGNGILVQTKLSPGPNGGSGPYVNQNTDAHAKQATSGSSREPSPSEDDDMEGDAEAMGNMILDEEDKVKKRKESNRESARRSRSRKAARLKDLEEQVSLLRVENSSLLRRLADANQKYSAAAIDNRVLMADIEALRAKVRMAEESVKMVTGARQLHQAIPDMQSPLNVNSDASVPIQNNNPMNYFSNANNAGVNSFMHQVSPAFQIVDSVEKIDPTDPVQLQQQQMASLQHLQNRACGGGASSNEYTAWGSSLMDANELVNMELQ
protocolDescription: protein-binding microarray (RPBM); PBS, 2% BSA, 51.3 ng/ul salmon testes DNA, 50 uM zinc acetate, 200 nM TF, 25 C, 1 h; high values mean tight binding
conditionSet: protein: recombinant; tags: N-terminal polyhistidine and DsRed monomer fusion (pET32a); chain copies: 2; label: CyDye5-dUTP incorporated in the synthesized complementary strand; 3' TTTTT single-stranded linker to array surface; dsDNA, one strand shown
The full ranking holds about 39,000 sequences; the median of “fluorescence intensity (a.u.)” is about 4,300, and the highest 2% start at about 39,000. What follows is part of a selection rich in the highest values, with near analogues and random picks from the rest.
Below: a set of entries, each annotated with reported binding signal.

# sequenceEntry, targetUnderTest, binding signal
records = [
    ("TTTCTTTGGTTCAGCTGAACCATTATTTGTTGTTTTACTTCGGAGTCACCTAGTGCAG", "OsSMF1 (Oryza sativa, UniProt Q6ZLB0 1-436)", "40700 fluorescence intensity (a.u.)"),
    ("ATCGGCAAACGCGTTCCACCAAAACCCTCCACGTCAGCATCGGAGTCACCTAGTGCAG", "OsSMF1 (Oryza sativa, UniProt Q6ZLB0 1-436)", "29800 fluorescence intensity (a.u.)"),
    ("GACCCACGCCTTCGGGTCCACATGTCATAGCCTATCCACCCGGAGTCACCTAGTGCAG", "OsSMF1 (Oryza sativa, UniProt Q6ZLB0 1-436)", "3550 fluorescence intensity (a.u.)"),
    ("TCCACCACACGTGTCTATATCGCTTCCTTCCATTCCATCACGGAGTCACCTAGTGCAG", "OsSMF1 (Oryza sativa, UniProt Q6ZLB0 1-436)", "7170 fluorescence intensity (a.u.)"),
    ("AACTTTCATAAGCAAAATATCAAACGACTTATAATTTTATCGGAGTCACCTAGTGCAG", "OsSMF1 (Oryza sativa, UniProt Q6ZLB0 1-436)", "26300 fluorescence intensity (a.u.)"),
    ("TGTTCCTCCACGTCGCTCCGCCGCTCCGCCCGCCTTGCTTCGGAGTCACCTAGTGCAG", "OsSMF1 (Oryza sativa, UniProt Q6ZLB0 1-436)", "5090 fluorescence intensity (a.u.)"),
    ("CAAACCACAGTGTTCCACGTCATCATCAATTGACAGCCGTCGGAGTCACCTAGTGCAG", "OsSMF1 (Oryza sativa, UniProt Q6ZLB0 1-436)", "37800 fluorescence intensity (a.u.)"),
    ("TTCTTCCTATATAAGCACAACACACGTCCTTACTTGTGTGCGGAGTCACCTAGTGCAG", "OsSMF1 (Oryza sativa, UniProt Q6ZLB0 1-436)", "5410 fluorescence intensity (a.u.)"),
    ("AAACAAAATAGCATAATCACTCACCGCGTCACACAGCGGGCGGAGTCACCTAGTGCAG", "OsSMF1 (Oryza sativa, UniProt Q6ZLB0 1-436)", "3720 fluorescence intensity (a.u.)"),
    ("GGAGGGTGGGGTAGGAGAGGATGCGGCGGGCGCCATGGCTCGGAGTCACCTAGTGCAG", "OsSMF1 (Oryza sativa, UniProt Q6ZLB0 1-436)", "3450 fluorescence intensity (a.u.)"),
    ("AGAAGGGGAGAAAAGGAAACCGATCTCGGTCATGGCCACGCGGAGTCACCTAGTGCAG", "OsSMF1 (Oryza sativa, UniProt Q6ZLB0 1-436)", "50900 fluorescence intensity (a.u.)"),
    ("CCGTGCTACAGCTGGCTACAAATATGTAGCCCTATGCTCTCGGAGTCACCTAGTGCAG", "OsSMF1 (Oryza sativa, UniProt Q6ZLB0 1-436)", "18300 fluorescence intensity (a.u.)"),
    ("ATCACTTCATTATCACATGACAGACCAACATATAATGATGCGGAGTCACCTAGTGCAG", "OsSMF1 (Oryza sativa, UniProt Q6ZLB0 1-436)", "44500 fluorescence intensity (a.u.)"),
    ("CCTTTTATCCGCTCTACGGACGCAGTCCACGTCAGCCGACCGGAGTCACCTAGTGCAG", "OsSMF1 (Oryza sativa, UniProt Q6ZLB0 1-436)", "39200 fluorescence intensity (a.u.)"),
    ("CCGTTACATTGTTCCAATTTTAATTAAACTTCCAATTTTACGGAGTCACCTAGTGCAG", "OsSMF1 (Oryza sativa, UniProt Q6ZLB0 1-436)", "30600 fluorescence intensity (a.u.)"),
    ("CCACCGGAAACAGGGAAGAAGAGGGGTCGAGAAAGGGGAGCGGAGTCACCTAGTGCAG", "OsSMF1 (Oryza sativa, UniProt Q6ZLB0 1-436)", "4020 fluorescence intensity (a.u.)"),
    ("TCCAAAAGTTCTTGATGTGGCATGGTGGACATGAATTTGTCGGAGTCACCTAGTGCAG", "OsSMF1 (Oryza sativa, UniProt Q6ZLB0 1-436)", "5240 fluorescence intensity (a.u.)"),
    ("AACCTCAATGTTCCACGTCATCATTAATTTACAGCCGTTGCGGAGTCACCTAGTGCAG", "OsSMF1 (Oryza sativa, UniProt Q6ZLB0 1-436)", "39400 fluorescence intensity (a.u.)"),
    ("CGCCTTATCCTCCCGCCTTTTCACGTCCCGCCACGCCGACCGGAGTCACCTAGTGCAG", "OsSMF1 (Oryza sativa, UniProt Q6ZLB0 1-436)", "4060 fluorescence intensity (a.u.)"),
    ("CACTCTTTATTTTATTATGACTTGATTCGTCATCAAATGTCGGAGTCACCTAGTGCAG", "OsSMF1 (Oryza sativa, UniProt Q6ZLB0 1-436)", "3870 fluorescence intensity (a.u.)"),
    ("AGAGGAAGAGGAAGAAGAGGTCATTCCGCCACGTCCCGGACGGAGTCACCTAGTGCAG", "OsSMF1 (Oryza sativa, UniProt Q6ZLB0 1-436)", "7090 fluorescence intensity (a.u.)"),
    ("GAAAGTTGCTGCGAACATACGTGATGACGCGACTAAAGCTCGGAGTCACCTAGTGCAG", "OsSMF1 (Oryza sativa, UniProt Q6ZLB0 1-436)", "5210 fluorescence intensity (a.u.)"),
    ("TTTGTACTCATTTTATTACAACATGAACAAACCCTTCTTTCGGAGTCACCTAGTGCAG", "OsSMF1 (Oryza sativa, UniProt Q6ZLB0 1-436)", "3500 fluorescence intensity (a.u.)"),
    ("TTGACAATGTGGTGCTACAGTAAATATTTGATAATGATGGCGGAGTCACCTAGTGCAG", "OsSMF1 (Oryza sativa, UniProt Q6ZLB0 1-436)", "3330 fluorescence intensity (a.u.)"),
    ("CCCTTGTCCATCCGCCAACGCCACGTCACCTCCTCCGCTACGGAGTCACCTAGTGCAG", "OsSMF1 (Oryza sativa, UniProt Q6ZLB0 1-436)", "52100 fluorescence intensity (a.u.)"),
    ("AACATGATTTAACAGGTAACAGTCGCCCATGCCATTCTTGCGGAGTCACCTAGTGCAG", "OsSMF1 (Oryza sativa, UniProt Q6ZLB0 1-436)", "3350 fluorescence intensity (a.u.)"),
    ("TAAAACAAGTCATAATAAAATAAATAGTAATTAAAATTCTCGGAGTCACCTAGTGCAG", "OsSMF1 (Oryza sativa, UniProt Q6ZLB0 1-436)", "29200 fluorescence intensity (a.u.)"),
]

###

Measured binding signal of individual entries
targetUnderTest: OsSMF1 (Oryza sativa, UniProt Q6ZLB0 1-436)
Sequence: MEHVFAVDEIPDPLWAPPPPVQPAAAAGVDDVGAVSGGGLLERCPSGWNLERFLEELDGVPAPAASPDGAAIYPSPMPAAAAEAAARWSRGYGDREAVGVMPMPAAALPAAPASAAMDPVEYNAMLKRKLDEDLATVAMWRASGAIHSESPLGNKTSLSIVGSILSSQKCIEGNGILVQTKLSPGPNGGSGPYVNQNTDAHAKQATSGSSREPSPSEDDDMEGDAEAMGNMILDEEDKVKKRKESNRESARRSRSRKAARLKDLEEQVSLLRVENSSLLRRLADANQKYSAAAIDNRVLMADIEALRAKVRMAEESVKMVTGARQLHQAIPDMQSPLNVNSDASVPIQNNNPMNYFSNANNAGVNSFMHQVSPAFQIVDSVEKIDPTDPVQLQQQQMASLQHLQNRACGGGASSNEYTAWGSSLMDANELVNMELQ
protocolDescription: protein-binding microarray (RPBM); PBS, 2% BSA, 51.3 ng/ul salmon testes DNA, 50 uM zinc acetate, 200 nM TF, 25 C, 1 h; high values mean tight binding
conditionSet: protein: recombinant; tags: N-terminal polyhistidine and DsRed monomer fusion (pET32a); chain copies: 2; label: CyDye5-dUTP incorporated in the synthesized complementary strand; 3' TTTTT single-stranded linker to array surface; dsDNA, one strand shown
Whole data set: some 39,000 sequences, median “fluorescence intensity (a.u.)” near 4,300, cut for the highest 2% near 39,000. The full list was thinned out, with the highest values kept by preference.
propertyMeasured: binding signal

# sequenceEntry, readoutValue
data = [
    ("ACATGATTTGTGCTCCATGACCTCTTTCTTCTATTATCTACGGAGTCACCTAGTGCAG", "7980 fluorescence intensity (a.u.)"),
    ("ACGGCGACAGCGTGGAGCTCCACGACGGCAGCGACGTCGGCGGAGTCACCTAGTGCAG", "3590 fluorescence intensity (a.u.)"),
    ("AGGTTGGTGATTCAGAGATGTCGAGACGTGTGTTCTTTTGCGGAGTCACCTAGTGCAG", "4270 fluorescence intensity (a.u.)"),
    ("GGTTCCATGCCTCGCCGTTTATCTATCTAATTTACTAGCACGGAGTCACCTAGTGCAG", "3170 fluorescence intensity (a.u.)"),
    ("TGGAGGTTATGAATCATACTCGGACGATAGTTAAGGGAGTCGGAGTCACCTAGTGCAG", "49700 fluorescence intensity (a.u.)"),
    ("AAGCTGTTTCACAAGGCAGTTTTGCATACGTGGCGGGCTGCGGAGTCACCTAGTGCAG", "21500 fluorescence intensity (a.u.)"),
]
